Target: glucagon receptor (UniProt P47871 26-477, limits assumed)
Sequence (P47871 26-477 limits assumed): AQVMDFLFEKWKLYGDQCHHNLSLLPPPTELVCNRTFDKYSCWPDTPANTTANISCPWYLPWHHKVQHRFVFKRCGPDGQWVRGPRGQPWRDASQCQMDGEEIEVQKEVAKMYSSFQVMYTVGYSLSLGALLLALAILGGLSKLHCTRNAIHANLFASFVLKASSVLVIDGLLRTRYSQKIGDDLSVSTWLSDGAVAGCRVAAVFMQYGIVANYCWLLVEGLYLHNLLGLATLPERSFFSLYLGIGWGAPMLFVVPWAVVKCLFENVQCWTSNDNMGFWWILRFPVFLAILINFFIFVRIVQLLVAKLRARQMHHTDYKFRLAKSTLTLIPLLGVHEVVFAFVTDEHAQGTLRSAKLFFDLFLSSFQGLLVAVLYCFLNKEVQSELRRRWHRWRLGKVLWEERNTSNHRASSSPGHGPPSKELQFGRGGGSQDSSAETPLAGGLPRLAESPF
Experiment: cell-based or functional assay
Bridges are numbered along the chain shown (N, C = ends). Where no end group is shown, it is not given here.
Glu IC50 of 70 nM or higher: 1 (yes). Under 70 nM: 0 (no).

Use these answered entries as a reference point.
FTSDYSKYLDERRAQDFVQWLMNTGPSSGAPPPS (lactam 7-11; not fully specified) [D9, K12E16(Lactam) Cex glucagon(6-39) (Table 13, peptide 4)]; 1 (yes)
FTSEYSKYLDERRAQDFVQWLMNTGPSSGAPPPS [E9, K12, E16 Cex glucagon(6-39) (Table 13, peptide 1)]; 1 (yes)
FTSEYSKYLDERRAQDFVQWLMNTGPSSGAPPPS (lactam 7-11) [E9, K12E16(lactam) Cex glucagon(6-39) (Table 13, peptide 2)]; 1 (yes)

Alright, here's another binder for you.
// inclusive: Glu IC50 at least 70 nM? input: FTSEYSKYLDERRAKDFVQWLMNTGPSSGAPPPS (lactam 11-15) [E9, E16K20(lactam) Cex glucagon(6-39) (Table 13, peptide 3)]
0 (no)
